study.system: UniProt:P22412
Sequence (P22412 whole entry): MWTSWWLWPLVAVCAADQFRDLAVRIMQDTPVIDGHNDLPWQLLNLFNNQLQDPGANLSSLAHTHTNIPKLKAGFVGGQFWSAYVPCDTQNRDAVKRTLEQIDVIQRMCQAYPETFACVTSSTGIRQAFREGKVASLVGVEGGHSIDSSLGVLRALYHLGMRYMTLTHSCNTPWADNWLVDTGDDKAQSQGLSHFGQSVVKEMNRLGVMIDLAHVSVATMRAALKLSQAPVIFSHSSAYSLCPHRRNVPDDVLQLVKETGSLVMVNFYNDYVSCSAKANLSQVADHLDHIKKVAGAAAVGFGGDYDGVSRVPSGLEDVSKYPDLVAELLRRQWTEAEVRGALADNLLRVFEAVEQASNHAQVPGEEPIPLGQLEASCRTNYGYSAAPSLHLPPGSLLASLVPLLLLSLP
assay.summary: Inhibitory activity against beta-lactamase renal dipeptidase at a concentration of 100 uM
Non-standard residues stand in square brackets, D forms with d. Residues, ends and D or L forms follow the SMILES beside them. *: point of attachment. Dhb = C/C=C(\N)C(=O)O; Butyryl = CCCC(=O)*
metric.name: inhibition
Your reply should be a number followed by the unit it is expressed in.

Consider `C[C@H](N)C(=O)N/C(=C\Cl)C(=O)O` . Its measured inhibition is 6%

The measured inhibition associated with `C/C=C(\NC(=O)C1(C)CC1)C(=O)O` reads 16%

New cases:
Kindly note the recorded inhibition for `C/C=C(\NC(=O)C(CCC)CCC)C(=O)O` , which is 13%

Record `C/C=C(\NC(=O)c1ccco1)C(=O)O` , field inhibition: 57%

Recorded inhibition (compound C/C=C(\NC(=O)C1C(C(C)(C)C)C1(C)C)C(=O)O (stereo not drawn) ): 44%

Measured inhibition of `C/C=C(\NC(=O)CCl)C(=O)O` : 52%

Item: `C/C=C(\NC(C)=O)C(=O)O` | inhibition: 12%

For this compound ( C/C=C(\NC(=O)CNC(=O)CCC)C(=O)O (Butyryl-Gly-[Dhb]-OH) ), measured inhibition is 5%
